Can you tell me growth inhibition for the items I'm about to list?
- assay_text: NCI Yeast Anticancer Drug Screen. Data for the wt2 strain (AID 169);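 further: 0% = growth of vehicle-treated yeast cultures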
- particulars: S. cerevisiae wt2 strain growth inhibition; at 11.0 µM; hits give high values
- Protocol: Growth inhibition of yeast strains with defined genetic alterations is measured as a screen for potential anti-cancer activity. Selected strains with alterations in DNA damage repair or cell cycle control were exposed to compounds and growth inhibition was measured relative to vehicle treated controls. The strain used in this assay is wt2
The panel holds about 79,000 compounds, 15% with a hit somewhere; the sample as a whole holds those more often.
Kindly provide the numeric value in % only, without the unit symbol.

growth inhibition for Cc1ccc(-n2cc(-c3ccc(Cl)cc3)c(C#N)c2N)cc1 ?
1

Quick one: growth inhibition of CC[n+]1ccc2c(C)c3[nH]c4ccc(O)cc4c3c(C)c2c1 ?
-3

So what does the record say about growth inhibition for N#Cc1c(N)[nH]c2ccc(Sc3ccccc3)cc12 ?
4

Would you mind telling me what growth inhibition value was observed for CC(=O)Nc1ccc(SC(C)=O)cc1 ?
-10

Query (compound): FC(F)(F)c1cc(NC(=S)N2c3ccccc3-n3cccc3C2c2cccnc2)cc(C(F)(F)F)c1 (centres undefined) ; field requested: growth inhibition
-2

Given C=CC(C)(O)CCC1C(=C)C(O)CC2C(C)(C)CCCC12C (centres undefined) , state its recorded growth inhibition.
-13

I'd like to know its growth inhibition. The compound in question is CC1C(NNc2ccccc2)Oc2cc3c(cc2C1c1ccccc1O)OCO3 (centres undefined)
99

Which growth inhibition reading was recorded for the compound COc1ccc(O)c(/C=N\Nc2ccccc2)c1 ?
21

State the recorded growth inhibition for this entry: CCC(=O)c1cccc2ccccc12
3

Can you share its growth inhibition? I mean this compound: c1ccc(-c2ccnc3c2ccc2c(-c4ccccc4)ccnc23)cc1
11

For the compound COc1ccc(N=C2C(=O)Nc3ccc(Br)cc32)cc1 , what growth inhibition is on record?
9

Which measured growth inhibition value corresponds to O=C(OCC=C1CCCC1)c1cc([N+](=O)[O-])cc([N+](=O)[O-])c1 ?
16

What does the data say about its growth inhibition? Entry: CCC#CCCCOC(=O)c1cc([N+](=O)[O-])cc([N+](=O)[O-])c1
4

Which growth inhibition reading was recorded for the compound Clc1ccccc1C1OC1c1ccccc1Cl (centres undefined) ?
-69

Please look up its growth inhibition: CSC(=S)Nc1cccc(C)n1
-31

Which growth inhibition is reported for this compound? CSC1=NNC(SC)=NN1
4

Entry N/C(=N\OC(=O)NC(Cl)=C(Cl)Cl)c1cc(C(F)(F)F)cc(C(F)(F)F)c1 : reported growth inhibition = ?
-36

So what does the record say about growth inhibition for CCCCCCCCC/C=C/C=C/C(=O)NCC(=O)NC1C(O)C(O)C(Nc2ncnc3nc[nH]c23)OC1C(O)CO (centres undefined) ?
53

Item under review: OC1CSCCCSCCSCCCSC1 . Reported growth inhibition?
-16

Please report the recorded growth inhibition for CCCS(=O)(=O)Nc1ccc(Nc2c3ccccc3nc3ccccc23)c(OC)c1 .
-41

Reported growth inhibition, compound Cc1ccc(CSC(N)=Nc2ccccc2)cc1C : ____
-13

Would you mind telling me what growth inhibition value was observed for C/C(=N\NC(=S)N1CCCCC1)c1cccc(C)n1 ?
97

If you can, please state the reported growth inhibition value of Cc1cc(S(=O)(=O)/N=C(/NN)NNc2cccc(C(F)(F)F)n2)c(S)cc1Cl .
-3

What growth inhibition value was documented for this compound, Nc1nc(-c2cccnc2)cc(-c2cc(-c3cccnc3)nc(N)n2)n1 ?
1
